experiment: folding stability dG unfold (combined trypsin and chymotrypsin); higher = more stable
Measured property: folding stability dG unfold (kcal/mol)

1) SAGGEPGVSAEEAAERLRRELGLPGLERVLEVRLTRAVGDPAGRPPEAESLEVEVEVSPEVRERLAALSAGG [r13_552_JUSTAS] ... 0.00798
2) SAGGSAGGSPVPVKVEKKPTKENKELIITYYPDGKVRVTTYTYDENGNKISEKEEIIPKSEVKLSAGGSAGG [r6_579_JUSTAS] ... 1.37
3) SAGGSAGGSHRIIFRINSPGMPPRQAADRIADMLQEEHGLKIKGVDIWTYPNGSYWVTITIEPSAGGSAGGS [r12_781_TrROS] ... 2.89
4) SAGGSAGGSAGMVLRVRTKDGKVIEIKDLSEELKNMTAEQLAEELKKKFPDLKIEVEEVPSAGGSAGGSAGG [r17_42_TrROS_Hall] ... 2.37
5) SAGGSAGGSAGGMPADEKVTTSPEIVTLPNGTRVVVTKSTSPDPSVSSTSVTVLPPNVPPSAGGSAGGSAGG [r11_338_JUSTAS] ... 1.05
6) SAGGEMTAEERARRLAERLAEELERRTGRKVEVVSVEVEYDPETDEVTVRIEIRLEDGSTLTIELRLSAGGS [r8_372_TrROS_Hall] ... 4.33
7) SAGGSASMGVSVAAIAEALDAARPAGAPPLVYVKLPNGEVVRVSPDESLTSISPEGEVEIEIRFLPSAGGSA [r15_50_JUSTAS] ... 0.878
8) SAGGSAGGSAIVILLPWGFLIEIKNIRMEMKRDPGNGEPKMDMHIPIEIIPIPPPGDPAFQESAGGSAGGSA [r18_6_TrROS] ... 2.79
9) SAKKVIIEVKSLEELLKAAKEAAKKGEKVEVLVKLKDGYYVKITMEFDKKTKKIKIKKIEIKPIKKEDLSAG [r14_455_TrROS_Hall] ... 2.46
10) SAGGMKKGQKVTITIEKNEDGTLRITVKVDGKEFVFEFPKDMSLEELLKKAEEAAKKLNLPVEIEPVSAGGS [r16_446_TrROS_Hall] ... 2.3
11) SAGGSAGGSAGGSMIVEEDPVGPEKVTTVTLPEKDKLVTVTETFLPDGSVVTTTTPVPSSAGGSAGGSAGGS [r4_332_JUSTAS] ... 1.96
12) SAGGSAGGSAGGETIELKLPNGKVLRVEKDKEKGKTYKIYDTKTKKLVKTFKSKEALKKASAGGSAGGSAGG [r7_72_TrROS_Hall] ... 1.02
13) SITASAKHPEEAIELAEKLKKELEKLLGPDTKVPITLYDDKGNPATFPITLKKKKPKVIYDPEKGLYRDESA [r9_596_TrMRF] ... -0.332
14) SAGGSALPEDATVKVEVTVVTLVYDPETGGFYLKVAKVEKEIRFDPKNGKLEVKVKKVEVKVFKLGSAGGSA [r15_517_TrMRF] ... 4.19
15) SAGGSAGGSSVLEVDPETGITVAVQDPSTGRYYVRNPEGEIREFDSPEEIREAFGRPVNFKTAPSAGGSAGG [r6_753_JUSTAS] ... 0.753
16) SAGGLIIPEEYEIVEKKAEILPDGSLRYTFILRPKSGELLLVEIRYPPDGSIEIEARRLTPEELKKALSAGG [r13_773_TrMRF] ... 3.56
17) SAGGSAAPVSRVVELEFVLPPELVAEAVDALRKLPGVKASFELAEVLPDGYVRVRVTIEVPDDVDLSAGGSA [r15_441_TrMRF] ... 3.8
18) SMNPIGNPITLPDGTTITIIPDLGLILIYDPETGTFIARLILVDENGIPHIFPFIGKIDPETGEIIEIDPSA [r9_122_TrMRF] ... 3.87

---

Each entry below carries its reported folding stability dG unfold.
test: folding stability dG unfold from trypsin proteolysis; higher = more stable
Measured property: folding stability dG unfold (kcal/mol)

1. SAGGSAGGSAMTPDELKDNFPNMPVEPRPLNNSTQWKIEMPGGMRIEIQYDPGKPKIDIEEGSAGGSAGGSA [r18_13_TrROS] ... -0.039
2. SAGGSAGGSAGGPNHYVMATETIEFEFEIRTRNEDGKPQEIKIKFTLTVIRMFPLPPGDPSAGGSAGGSAGG [r7_926_TrROS] ... 3.36
3. SAGGSAGGSLKPGQPYIMIRIKIQHPNGNTRTFNIMVPWNDIPQILDFLESHGFKIKDIEIFPSAGGSAGGS [r12_986_TrROS] ... 3.94
4. SAGGSAKKLPAEAVAKELAERLSKELGLTIKRVEVEVIDPEKGLVRVTVVYETPYGYLKREILLPVSAGGSA [r15_32_TrMRF] ... 1.83
5. SAGGPGFQRYPYTLELPDGRKITVEYWRMGDNPYVQIDIRHDGEPLGTIHVPVPSPDQIEDAAKDIISAGGS [r16_55_TrROS] ... 1.18
6. SAGGNKATLTVSEDNYPVLLLELYAPDGELIATAPVLLDPEKGGLTAADLERLLKEIDVPPDVEVNIASAGG [r13_479_TrMRF] ... 1.21
7. SAGEFEVLEVREVDGRLVVRLALPDKPEVVTIVLERHPDGSVRALIEAEGEAADRIVEALPELDEVVVASAG [r5_933_TrMRF] ... 1.9
8. SAKILEIKPLPDGTVIIKIPVDAPEDVDPKEVKILVKSEEGVKEAEILEDGTIDIVVENVKDVKIEIFVESA [r9_722_TrMRF] ... 0.305
9. SAGGSAMKAKEIKRLKLKDRPLVVIFLENPEGGYSVLVIPLENPEKVEELLEELVKEGLLDEITPESAGGSA [r15_575_TrMRF] ... 1.03
10. SAGGSAGGSKEKKTVILRIKIYVKNENGELIEEIEIPLKDLTLEELKELAKKLNVKVEIELLPSAGGSAGGS [r12_398_TrROS_Hall] ... 1.69
11. SADLAAELEEGGFVVTITETVVSVTPQTLEKDSFVVEKDVVTTITVTPPPVAPPPPDPANLRDAAGAPVSAG [r14_569_JUSTAS] ... -0.0411
12. SAGGSAGGGYAEFETTAVLPDGRVYRAKIVLSPDPDIVKIRLFSPEGEEEIELHPDDPLLLTPGSAGGSAGG [r6_926_TrMRF] ... 1.46
13. SAGGSAGGSAGTVEEIAKYFAGEFPNYKVNIDVEWEGGKITSVDIEWEVVPPPPPESPGKSAGGSAGGSAGG [r11_197_TrROS] ... 1.16
14. SAGGSMKIEKLPDGKTVVIETVDEETNTITRTRFKLDKDGKLVEMEVETITLPAPPPEEVDEDGKESAGGSA [r2_375_TrROS_Hall] ... 1.92
15. SAGGSAGGSSPDIEVEITVDAPPGARILGTDGKPVEIPASNPKVKIIVIEGDNSFFIKTEPVGSAGGSAGGS [r12_338_TrMRF] ... -0.362
16. SAGGMKTVNLTYTRYLPDKTLEEAKELAKKDLESRGLKILSLPVSREPGAGVVTVSATVEVAPPSLLSAGGS [r16_287_JUSTAS] ... 3.67
17. SAGGSAGGSATVDEVIKEAREEAREEHPNYPPGQTHTIKIRDPDNGEKVKIRFTNDGKIEISAGGSAGGSAG [r3_441_TrROS] ... -0.0324

---

Each entry below carries its reported folding stability dG unfold.
assay: folding stability dG unfold from trypsin proteolysis; higher = more stable
Measured property: folding stability dG unfold (kcal/mol)

1. SAGGSMKPAKKITFTFPDGRKAEIFFYPEEDTIELRIYFPETGTFVEIPVKSPEDLIETLKKLLAESAGGSA [r2_70_TrMRF] ... 4.02
2. SAGSMKTVVRVEKEVDPSTGKITITEEIEDKVYTTTMDLNPETGDATSTVTYPDSTIGTTTVPISSISSSAG [r5_415_JUSTAS] ... -0.155
3. SAGMKAYIVSVEKNEDGTETIKLKVYFLDKNGKVVETKEITIKKGETIKITFPNGKTITVPAKDLKLVKSAG [r5_137_TrROS_Hall] ... 2.02
4. SAGGSAGGPPVEERELTLPDGTRLTITRYPDSYTVEVTLPDGTVETRTYPDVTPEEAVAAVKAASAGGSAGG [r6_459_JUSTAS] ... 1.68
5. SAGGKKKKKKPKIVRVKITLKNENGEEIEIDEAVILPDGTILIRDKKTGKIFEIKLDDITKIEIEEVSAGGS [r8_410_TrROS_Hall] ... 1.99
6. SAGGSAPFPIKISTIRYPDGYIRMEIWIPPDAPIKIKFPNGFEMEVEPVPNGYYRITMYFRIPKEDSAGGSA [r15_523_TrROS] ... 3.77
7. SAGGSAGGMKEGETRTITFWANVKPGDLEKIANHMMKFGWPIKKVDIKRHPENGMVRVSITIRKSAGGSAGG [r6_514_TrROS] ... 2.21
